Assign protein stability index to each entry below.
B1: KRT13 (parent)
chain: TPGIDLTRVLAEMREQYEAMAERN

# Variants of: B1
# protocol_summary: protein stability index of a GFP-peptide fusion (GPS, HEK-293T) (PSI 1-6); higher = more stable;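 note: lentivirally expressed fusions sorted by FACS into six bins by GFP to DsRed ratio, PSI derived from sequencing read proportions per bin multiplied by bin number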
# condition_info: c terminus: a fixed tail appended
Answers are plain numbers.

Example entries and their recorded answers appear below.
[
  {
    "mutation": "A21F",
    "recorded_measurement": 3.98
  },
  {
    "mutation": "M20D",
    "recorded_measurement": 4.79
  },
  {
    "mutation": "Y17C",
    "recorded_measurement": 4.23
  },
  {
    "mutation": "T1C",
    "recorded_measurement": 3.45
  }
]

List the reported protein stability index of each variant below.
1. G3W
2. R23V
3. A11Y

1: 3.37; 2: 3.01; 3: 3.74

Go through the list and state protein stability index for each entry.
1. E15F
2. G3F
3. V9I
4. E12K
5. Q16E
6. P2V
7. R23H

1. 3.26
2. 2.28
3. 3.06
4. 2.23
5. 3.97
6. 2.6
7. 4.21

Quick batch: protein stability index for everything below.
1. R23W
2. A11I

1: 2.83; 2: 3.51
